- Measurement Notes: Intrinsic clearance in human liver microsomes at 1 uM measured upto 30 mins in presence of NADPH by LC/MS analysis
- Type: ADME, Microsome
- Condition Notes: read-out: CLH (converted)
For each entry below, report its hepatic clearance at 1 µM value.

// below: answered compounds
Cc1cc(-c2nc3c(F)c(-c4cccc5ccc(F)cc45)c(CCC#N)cc3c3c2cc(CN2CCOCC2=O)n3[C@H]2[C@H]3CN[C@@H]2C3)ccn1 ... 16.7 mL/min/kg
CCOc1nc2c(F)c(-c3cc(O)cc4ccccc34)c(CCC#N)cc2c2c1cc(CCC(=O)N(C)C)n2[C@H]1[C@H]2CN[C@@H]1C2 ... > 18.3 mL/min/kg

Lab note: next compound to report on.
Req: Look up and report measured hepatic clearance at 1 µM for this entry: N#CCCc1cc2c(nc(-c3ccncn3)c3cc(CN4CCOCC4=O)n([C@H]4[C@H]5CN[C@@H]4C5)c32)c(F)c1-c1cccc2ccc(F)cc12
Resp: 11.7 mL/min/kg

Where do the numbers come from? From ChEMBL document CHEMBL6087482.
